Where these numbers come from: ChEMBL document CHEMBL1147868

Below, each entry is listed alongside its reported MIC80.
Test system: Candida parapsilosis
measurement.notes: Antifungal activity against Candida parapsilosis ATCC 0306392 after 7 days by micro-broth dilution method
Format: functional
assay.setup: Lodderomyces parapsilosis, ATCC 0306392, 168 h

>  <molecule>
COc1cc(C(=O)Nc2ccc(N3CCN(CC(O)(Cn4cncn4)c4ccc(F)cc4F)CC3)c(F)c2)cc(OC)c1OC (stereo not drawn)

>  <unit.name>
µg/mL

>  <prefix.operator>
=

>  <MIC80>
0.0625

$$$$
>  <molecule>
CCCCc1ccc(C(=O)Nc2ccc(N3CCN(CC(O)(Cn4cncn4)c4ccc(F)cc4F)CC3)c(F)c2)cc1 (stereo not drawn)

>  <unit.name>
µg/mL

>  <prefix.operator>
=

>  <MIC80>
1

$$$$
>  <molecule>
O=C(Nc1ccc(N2CCN(CC(O)(Cn3cncn3)c3ccc(F)cc3F)CC2)c(F)c1)c1ccccc1F (stereo not drawn)

>  <unit.name>
µg/mL

>  <prefix.operator>
<

>  <MIC80>
0.0039

$$$$
>  <molecule>
OC(Cn1cncn1)(Cn1cncn1)c1ccc(F)cc1F

>  <unit.name>
µg/mL

>  <prefix.operator>
=

>  <MIC80>
1

$$$$
>  <molecule>
CC(C)c1ccc(C(=O)Nc2ccc(N3CCN(CC(O)(Cn4cncn4)c4ccc(F)cc4F)CC3)c(F)c2)cc1 (stereo not drawn)

>  <unit.name>
µg/mL

>  <prefix.operator>
=

>  <MIC80>
0.25

$$$$
>  <molecule>
COc1ccc(C(=O)Nc2ccc(N3CCN(CC(O)(Cn4cncn4)c4ccc(F)cc4F)CC3)c(F)c2)cc1OC (stereo not drawn)

>  <unit.name>
µg/mL

>  <prefix.operator>
=

>  <MIC80>
0.0625

$$$$
>  <molecule>
CC(C)(C)c1ccc(C(=O)Nc2ccc(N3CCN(CC(O)(Cn4cncn4)c4ccc(F)cc4F)CC3)c(F)c2)cc1 (stereo not drawn)

>  <unit.name>
µg/mL

>  <prefix.operator>
=

>  <MIC80>
0.0625

$$$$
>  <molecule>
O=C(Nc1ccc(N2CCN(CC(O)(Cn3cncn3)c3ccc(F)cc3F)CC2)c(F)c1)c1cccc(C(F)(F)F)c1 (stereo not drawn)

>  <unit.name>
µg/mL

>  <prefix.operator>
=

>  <MIC80>
0.0152

$$$$

---

Tested on: Candida parapsilosis
measurement.notes: Antifungal activity against Candida parapsilosis ATCC 0306392 after 7 days by micro-broth dilution method
Type: functional
assay.setup: Lodderomyces parapsilosis, ATCC 0306392, 168 h
Readings of MIC80 for the listed compounds

>  <compound>
C[C@@H]1[C@H](O)[C@@H](C)/C=C/C=C/C=C/C=C/C=C/C=C/C=C/[C@H](O[C@@H]2O[C@H](C)[C@@H](O)[C@H](N)[C@@H]2O)C[C@@H]2O[C@](O)(C[C@@H](O)C[C@@H](O)[C@H](O)CC[C@@H](O)C[C@@H](O)CC(=O)O[C@H]1C)C[C@H](O)[C@H]2C(=O)O

>  <MIC80 [mg/L]>
0.0152

$$$$
>  <compound>
O=C(Nc1ccc(N2CCN(CC(O)(Cn3cncn3)c3ccc(F)cc3F)CC2)c(F)c1)c1cccc(Cl)c1 (stereo not drawn)

>  <MIC80 [mg/L]>
0.0152

$$$$
>  <compound>
Cc1ccccc1C(=O)Nc1ccc(N2CCN(CC(O)(Cn3cncn3)c3ccc(F)cc3F)CC2)c(F)c1 (stereo not drawn)

>  <MIC80 [mg/L]>
0.0152

$$$$

---

Test system: Candida parapsilosis
measurement.notes: Antifungal activity against Candida parapsilosis ATCC 0306392 after 7 days by micro-broth dilution method
Type: functional
assay.setup: Lodderomyces parapsilosis, ATCC 0306392, 168 h
recorded.metric: log10(MIC80) (log10 of the value in µg/mL)

>  <compound>
CCCc1ccc(C(=O)Nc2ccc(N3CCN(CC(O)(Cn4cncn4)c4ccc(F)cc4F)CC3)c(F)c2)cc1 (stereo not drawn)

>  <target.under.test>
Candida parapsilosis

>  <quantitative.result>
-1.20

$$$$
>  <compound>
COc1ccccc1C(=O)Nc1ccc(N2CCN(CC(O)(Cn3cncn3)c3ccc(F)cc3F)CC2)c(F)c1 (stereo not drawn)

>  <target.under.test>
Candida parapsilosis

>  <quantitative.result>
-0.60

$$$$
>  <compound>
O=C(Nc1ccc(N2CCN(CC(O)(Cn3cncn3)c3ccc(F)cc3F)CC2)c(F)c1)c1ccc(F)cc1 (stereo not drawn)

>  <target.under.test>
Candida parapsilosis

>  <quantitative.result>
-2.41

$$$$
>  <compound>
Cc1cccc(C(=O)Nc2ccc(N3CCN(CC(O)(Cn4cncn4)c4ccc(F)cc4F)CC3)c(F)c2)c1 (stereo not drawn)

>  <target.under.test>
Candida parapsilosis

>  <quantitative.result>
-1.82

$$$$
>  <compound>
O=C(Nc1ccc(N2CCN(CC(O)(Cn3cncn3)c3ccc(F)cc3F)CC2)c(F)c1)c1ccccc1[N+](=O)[O-] (stereo not drawn)

>  <target.under.test>
Candida parapsilosis

>  <quantitative.result>
-1.20

$$$$
>  <compound>
O=C(Nc1ccc(N2CCN(CC(O)(Cn3cncn3)c3ccc(F)cc3F)CC2)c(F)c1)c1ccccc1 (stereo not drawn)

>  <target.under.test>
Candida parapsilosis

>  <quantitative.result>
-1.82

$$$$
>  <compound>
C[C@@H](c1ncncc1F)[C@](O)(Cn1cncn1)c1ccc(F)cc1F

>  <target.under.test>
Candida parapsilosis

>  <quantitative.result>
0.00

$$$$
>  <compound>
CCc1ccc(C(=O)Nc2ccc(N3CCN(CC(O)(Cn4cncn4)c4ccc(F)cc4F)CC3)c(F)c2)cc1 (stereo not drawn)

>  <target.under.test>
Candida parapsilosis

>  <quantitative.result>
0.60

$$$$

---

Entries and their MIC80 values follow.
System: Aspergillus fumigatus
measurement.notes: Antifungal activity against Aspergillus fumigatus after 7 days by micro-broth dilution method
Type: functional
assay.setup: 168 h
recorded.metric: MIC80

>  <compound>
Nc1ccc(N2CCN(CC(O)(Cn3cncn3)c3ccc(F)cc3F)CC2)c(F)c1 (centres undefined)

>  <recorded.metric>
MIC80

>  <result>
4 µg/mL

$$$$
>  <compound>
OC(Cn1cncn1)(Cn1cncn1)c1ccc(F)cc1F

>  <recorded.metric>
MIC80

>  <result>
64 µg/mL

$$$$
>  <compound>
CCC(C)n1ncn(-c2ccc(N3CCN(c4ccc(OCC5COC(Cn6cncn6)(c6ccc(Cl)cc6Cl)O5)cc4)CC3)cc2)c1=O (centres undefined)

>  <recorded.metric>
MIC80

>  <result>
1 µg/mL

$$$$
>  <compound>
CCCCCc1ccc(C(=O)Nc2ccc(N3CCN(CC(O)(Cn4cncn4)c4ccc(F)cc4F)CC3)c(F)c2)cc1 (centres undefined)

>  <recorded.metric>
MIC80

>  <result>
4 µg/mL

$$$$

---

Tested on: Aspergillus fumigatus
measurement.notes: Antifungal activity against Aspergillus fumigatus after 7 days by micro-broth dilution method
Format: functional
assay.setup: 168 h
recorded.metric: MIC80 (µg/mL)

>  <compound>
CC(C)(C)c1ccc(C(=O)Nc2ccc(N3CCN(CC(O)(Cn4cncn4)c4ccc(F)cc4F)CC3)c(F)c2)cc1 (centres undefined)

>  <recorded.metric>
MIC80

>  <quantitative.result>
4

$$$$
>  <compound>
O=C(Nc1ccc(N2CCN(CC(O)(Cn3cncn3)c3ccc(F)cc3F)CC2)c(F)c1)c1ccccc1 (centres undefined)

>  <recorded.metric>
MIC80

>  <quantitative.result>
1

$$$$
>  <compound>
O=C(Nc1ccc(N2CCN(CC(O)(Cn3cncn3)c3ccc(F)cc3F)CC2)c(F)c1)c1ccc(F)cc1 (centres undefined)

>  <recorded.metric>
MIC80

>  <quantitative.result>
1

$$$$
>  <compound>
O=C(Nc1ccc(N2CCN(CC(O)(Cn3cncn3)c3ccc(F)cc3F)CC2)c(F)c1)c1ccc(Cl)cc1Cl (centres undefined)

>  <recorded.metric>
MIC80

>  <quantitative.result>
0.25

$$$$

---

Test system: Candida parapsilosis
measurement.notes: Antifungal activity against Candida parapsilosis ATCC 0306392 after 7 days by micro-broth dilution method
Type: functional
assay.setup: Lodderomyces parapsilosis, ATCC 0306392, 168 h
As shown below, each of these compounds has a reported MIC80 value.
recorded.metric: MIC80

>  <compound>
CC(=O)N1CCN(c2ccc(OC[C@H]3CO[C@](Cn4ccnc4)(c4ccc(Cl)cc4Cl)O3)cc2)CC1 [KETOCONAZOLE]

>  <target.under.test>
Candida parapsilosis

>  <recorded.metric>
MIC80

>  <result>
0.0625 µg/mL

$$$$
>  <compound>
CCCCCc1ccc(C(=O)Nc2ccc(N3CCN(CC(O)(Cn4cncn4)c4ccc(F)cc4F)CC3)c(F)c2)cc1 (centres undefined)

>  <target.under.test>
Candida parapsilosis

>  <recorded.metric>
MIC80

>  <result>
0.25 µg/mL

$$$$
>  <compound>
COc1cccc(C(=O)Nc2ccc(N3CCN(CC(O)(Cn4cncn4)c4ccc(F)cc4F)CC3)c(F)c2)c1 (centres undefined)

>  <target.under.test>
Candida parapsilosis

>  <recorded.metric>
MIC80

>  <result>
0.0152 µg/mL

$$$$
>  <compound>
Cc1ccc(C(=O)Nc2ccc(N3CCN(CC(O)(Cn4cncn4)c4ccc(F)cc4F)CC3)c(F)c2)cc1C (centres undefined)

>  <target.under.test>
Candida parapsilosis

>  <recorded.metric>
MIC80

>  <result>
0.0152 µg/mL

$$$$
>  <compound>
Nc1ccc(N2CCN(CC(O)(Cn3cncn3)c3ccc(F)cc3F)CC2)c(F)c1 (centres undefined)

>  <target.under.test>
Candida parapsilosis

>  <recorded.metric>
MIC80

>  <result>
0.25 µg/mL

$$$$
>  <compound>
Cc1ccc(C(=O)Nc2ccc(N3CCN(CC(O)(Cn4cncn4)c4ccc(F)cc4F)CC3)c(F)c2)c(C)c1 (centres undefined)

>  <target.under.test>
Candida parapsilosis

>  <recorded.metric>
MIC80

>  <result>
0.25 µg/mL

$$$$
>  <compound>
O=C(Nc1ccc(N2CCN(CC(O)(Cn3cncn3)c3ccc(F)cc3F)CC2)c(F)c1)c1ccc(Cl)cc1 (centres undefined)

>  <target.under.test>
Candida parapsilosis

>  <recorded.metric>
MIC80

>  <result>
0.0152 µg/mL

$$$$
>  <compound>
O=[N+]([O-])c1ccc(N2CCN(CC(O)(Cn3cncn3)c3ccc(F)cc3F)CC2)c(F)c1 (centres undefined)

>  <target.under.test>
Candida parapsilosis

>  <recorded.metric>
MIC80

>  <result>
0.0039 µg/mL

$$$$
>  <compound>
O=C(Nc1ccc(N2CCN(CC(O)(Cn3cncn3)c3ccc(F)cc3F)CC2)c(F)c1)c1cccc(Br)c1 (centres undefined)

>  <target.under.test>
Candida parapsilosis

>  <recorded.metric>
MIC80

>  <result>
0.0625 µg/mL

$$$$
